tested on: MCF-7 (Taxol Sensitive) human breast carcinoma; assay: Drug resistant cell line pair, cytotoxicity (Example 10B); type: cell-based; conditions: Homo sapiens, MCF7/Taxol, read-out: MCF-7 Sensitive IC50 nM
Assay Endpoint: IC50

Compound	Assay Endpoint	Experimental Value
CC(C)(C)c1[nH]cnc1/C=c1\[nH]c(=O)/c(=C/c2ccccc2)[nH]c1=O [KPU-2, tBu-dehydro-PLH]	IC50	39.6 nM

###

Tested on: MES-SA human uterine sarcoma
Assay: Cell growth inhibition assay, resazurin (Example 11)
Assay type: cell-based
Settings: mean ± standard deviation of three independent experiments
Protocol: Human uterine sarcoma (MES-SA; CRL-1976), its multidrug resistant derivative (MES-SA/Dx5; CRL-1977), human acute promyelocytic leukemia cells (HL-60; CCL-240) and its multidrug resistant derivative (HL-60/MX2; CRL-2257) were purchased from ATCC and maintained in appropriate culture media. The cells were cultured in an incubator at 37° C. in 5% CO2 and 95% humidified air. […]
// reported EC50 for each item listed
Assay Endpoint: EC50

Compound	Experimental Value
CC(=O)O[C@H]1C(=O)[C@@]2(C)[C@H]([C@H](OC(=O)c3ccccc3)[C@]3(O)C[C@H](OC(=O)[C@H](O)[C@@H](NC(=O)c4ccccc4)c4ccccc4)C(C)=C1C3(C)C)[C@]1(OC(C)=O)CO[C@@H]1C[C@@H]2O [Paclitaxel, reference compound]	4.8 nM
CC(C)(C)c1ocnc1/C=c1\[nH]c(=O)/c(=C/c2c(F)c(F)cc(F)c2F)[nH]c1=O	13 nM
CC(C)(C)c1ocnc1/C=c1\[nH]c(=O)/c(=C/c2ccccc2)[nH]c1=O	12 nM
CC(C)(C)c1ocnc1/C=c1\[nH]c(=O)/c(=C/c2c(F)ccc(F)c2F)[nH]c1=O	22 nM
CC(C)(C)c1ocnc1/C=c1\[nH]c(=O)/c(=C/c2cccc(F)c2)[nH]c1=O	12 nM
CC(C)(C)c1ocnc1/C=c1\[nH]c(=O)/c(=C/c2cc(F)cc(F)c2F)[nH]c1=O	13 nM
